B1: SETD8 (parent)
chain: KKAQGKTQQNRKLTDFYPVRRSSR

variants of: B1; test: protein stability index of a GFP-peptide fusion (GPS, HEK-293T) (PSI 1-6); higher = more stable; conditions: c terminus: a fixed tail appended;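 further: lentivirally expressed fusions sorted by FACS into six bins by GFP to DsRed ratio, PSI derived from sequencing read proportions per bin multiplied by bin number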

Alteration: G5E
protein stability index: 2.89
//
Alteration: V19M
protein stability index: 3.01
//
Alteration: R20S
protein stability index: 2
//
Alteration: P18R
protein stability index: 2.54
//
Alteration: T14G
protein stability index: 2.68
//
Alteration: D15A
protein stability index: 2.85
//
Alteration: T14R
protein stability index: 3.11
//
Alteration: K6F
protein stability index: 2.16
//
Alteration: R20M
protein stability index: 2.94
//
Alteration: K2Y
protein stability index: 2.43
//
Alteration: K12V
protein stability index: 2.32
//
Alteration: V19D
protein stability index: 3.32
//
Alteration: G5A
protein stability index: 1.87
//
Alteration: K2R
protein stability index: 2.03
//
Alteration: T14A
protein stability index: 3.99
//
Alteration: K6H
protein stability index: 1.57
//
Alteration: K2S
protein stability index: 2.12
//
Alteration: L13V
protein stability index: 2.79
//
Alteration: V19R
protein stability index: 4.2
//
Alteration: K2Q
protein stability index: 1.83
//
Alteration: Q9E
protein stability index: 3.12
//
Alteration: S23Y
protein stability index: 3.04
//
Alteration: P18I
protein stability index: 2.66
//
Alteration: R20F
protein stability index: 2.63
//
Alteration: P18A
protein stability index: 3.16
//
Alteration: F16S
protein stability index: 3.07
//
Alteration: S23R
protein stability index: 2.16
//
Alteration: S22G
protein stability index: 2.42
//
Alteration: K1L
protein stability index: 4.04
//
Alteration: T7M
protein stability index: 2.41
//
Alteration: T14I
protein stability index: 2.63
//
Alteration: R11G
protein stability index: 1.5
//
Alteration: Q4E
protein stability index: 1.68
//
Alteration: R24T
protein stability index: 2.75
//
Alteration: K12N
protein stability index: 2.81
//
Alteration: A3V
protein stability index: 3.41
//
Alteration: N10R
protein stability index: 2.74
//
Alteration: A3W
protein stability index: 2.33
//
Alteration: T14M
protein stability index: 1.79
//
Alteration: R21V
protein stability index: 3
//
Alteration: D15G
protein stability index: 3.23
//
Alteration: T14D
protein stability index: 4.21
//
Alteration: T7Q
protein stability index: 2.66
//
Alteration: Y17Q
protein stability index: 4.09
//
Alteration: L13R
protein stability index: 5.53
//
Alteration: S23F
protein stability index: 3.54
//
Alteration: R24L
protein stability index: 2.08
//
Alteration: K2H
protein stability index: 3.35
//
Alteration: T7F
protein stability index: 1.95
//
Alteration: K6R
protein stability index: 3.1
//
Alteration: K1T
protein stability index: 2.62
//
Alteration: Q8G
protein stability index: 2.28
//
Alteration: Q8M
protein stability index: 1.89
//
Alteration: K12S
protein stability index: 2.64
//
Alteration: N10I
protein stability index: 3.4
//
Alteration: Y17W
protein stability index: 1.41
//
Alteration: N10S
protein stability index: 2.35
//
Alteration: R21A
protein stability index: 2.52
//
Alteration: F16Y
protein stability index: 3.29
//
Alteration: F16H
protein stability index: 2.33
//
Alteration: N10H
protein stability index: 3.49
//
Alteration: S22A
protein stability index: 2.92
//
Alteration: R21C
protein stability index: 2.23
//
Alteration: F16M
protein stability index: 3.81
//
Alteration: V19I
protein stability index: 3.13
//
Alteration: K2L
protein stability index: 1.57
//
Alteration: D15P
protein stability index: 3.1
//
Alteration: R21S
protein stability index: 3.25
//
Alteration: L13W
protein stability index: 4.33
//
Alteration: T14E
protein stability index: 4.32
//
Alteration: K1G
protein stability index: 1.81
//
Alteration: G5N
protein stability index: 2.53
//
Alteration: A3N
protein stability index: 3.12
//
Alteration: Q4T
protein stability index: 1.87
//
Alteration: Y17V
protein stability index: 3.37
//
Alteration: R11F
protein stability index: 2.91
//
Alteration: S23K
protein stability index: 4.11
//
Alteration: Q8E
protein stability index: 1.69
//
Alteration: P18D
protein stability index: 3.38
//
Alteration: N10E
protein stability index: 2.67
//
Alteration: K12M
protein stability index: 2.55
//
Alteration: A3R
protein stability index: 3.17
//
Alteration: Q8P
protein stability index: 2.94
//
Alteration: Q4G
protein stability index: 2.22
//
Alteration: V19G
protein stability index: 4.08
//
Alteration: K12P
protein stability index: 2.97
//
Alteration: S23H
protein stability index: 2.7
//
Alteration: V19P
protein stability index: 2.88
//
Alteration: R11W
protein stability index: 2.76
//
Alteration: Q8H
protein stability index: 2.59
//
Alteration: Q4I
protein stability index: 3.18
